Biological target: NADPH oxidase 5 (Homo sapiens) (UniProt Q96PH1)
Sequence (Q96PH1 whole entry, looked up): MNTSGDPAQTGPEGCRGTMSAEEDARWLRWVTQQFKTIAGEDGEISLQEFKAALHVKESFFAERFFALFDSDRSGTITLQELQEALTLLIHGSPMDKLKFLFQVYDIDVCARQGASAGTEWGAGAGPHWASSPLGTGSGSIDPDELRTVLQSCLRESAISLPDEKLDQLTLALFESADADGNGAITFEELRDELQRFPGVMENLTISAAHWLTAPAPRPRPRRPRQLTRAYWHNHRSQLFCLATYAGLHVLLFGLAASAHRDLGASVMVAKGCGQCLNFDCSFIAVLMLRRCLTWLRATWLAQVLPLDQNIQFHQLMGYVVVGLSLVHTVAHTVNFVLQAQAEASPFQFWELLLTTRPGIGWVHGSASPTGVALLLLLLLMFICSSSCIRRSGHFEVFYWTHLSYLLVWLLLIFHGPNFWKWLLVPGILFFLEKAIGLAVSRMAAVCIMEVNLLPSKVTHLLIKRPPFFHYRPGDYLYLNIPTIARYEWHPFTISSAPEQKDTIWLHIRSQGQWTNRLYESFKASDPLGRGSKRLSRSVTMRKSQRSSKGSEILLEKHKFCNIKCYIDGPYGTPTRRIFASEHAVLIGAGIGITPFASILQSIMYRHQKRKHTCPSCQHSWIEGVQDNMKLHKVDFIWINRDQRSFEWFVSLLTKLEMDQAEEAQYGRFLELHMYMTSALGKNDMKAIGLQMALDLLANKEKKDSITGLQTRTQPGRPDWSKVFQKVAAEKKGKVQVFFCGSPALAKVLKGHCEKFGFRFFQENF
Test: NOX5-dependent H2O2 signal modulators, primary screen, NOX inhibitor project, cell-based, HEK293-NOX5, Amplex Red fluorescence (AID 1161)
Conditions: HEK293-NOX5, ionomycin, 45 min, higher = more signal
Classify by measured z-score: condition met if it is equal to or exceeds 0.1, condition not met if it is smaller.

>  <Compound>
CCOC(=O)NN=C1C[C@@H](O)[C@@H](O)[C@@H]2[C@@H]3C(=O)N(c4ccc(F)cc4F)C(=O)[C@@H]3CC[C@H]12

>  <Category label>
condition not met

$$$$
>  <Compound>
COc1ccc(COC(=O)NN=C2C[C@@H](O)[C@@H](O)[C@@H]3[C@@H]4C(=O)N(c5cccc(Oc6ccccc6)c5)C(=O)[C@@H]4CC[C@H]23)cc1

>  <Category label>
condition not met

$$$$
>  <Compound>
CC#CCOCCC=C1c2ccccc2[C@@H](OC)[C@@H]1C

>  <Category label>
condition met

$$$$

Given COC(=O)[C@@H]1CC[C@H](C)[C@@H](c2ccc(C)cc2)N1C(=O)c1ccc(C=NOC[C@H]2O[C@H](c3ccccc3)C=C[C@@H]2Oc2ccc(OC)cc2)cc1 , state whether its z-score is at least 0.1. condition met

Has Cc1cc(C)c(-c2cc([C@H](C)ON=C[C@@H](C)[C@H](OCc3ccccc3)C(C)C)on2)c(C)c1 a recorded z-score greater than or equal to 0.1? condition not met

Determine whether this compound has z-score no lower than 0.1: C[C@@H](c1ccccc1)N1C(=O)[C@H]2[C@H]3[C@H](O)[C@H](O)CC(=NOC[C@@H](O)COCc4ccco4)[C@H]3CC[C@H]2C1=O condition met

Test whether the compound CCOC(=O)[C@H](CC(C)C)NC(=O)CCC1CC(OC(=O)NCc2ccc3c(c2)OCO3)CC2(CCCC(COC(=O)NCCOc3ccccc3)O2)O1 (some centres undefined) records z-score of 0.1 or higher. condition not met

Does z-score meet or surpass 0.1 for O=C1[C@H]2[C@H]3[C@H](O)[C@H](O)CC(=NO[C@@H]4O[C@H](CO)[C@@H](O)[C@H](O)[C@H]4O)[C@@H]3CC[C@H]2C(=O)N1C1CCCCC1 ? condition met

Reported z-score at or above 0.1? CCOC(=O)[C@H](Cc1ccccc1)NC(=O)CCC1CC(OC(=O)NCc2cccc3ccccc23)CC2(CCCC(COC(=O)NCCc3ccccc3OC)O2)O1 (some centres undefined) condition met

// inclusive: z-score at least 0.1? input: COC(=O)CC=C[C@@H](C)[C@@H](C=NOC[C@@H](C)[C@H](OCc1ccccc1)C(C)C)OC condition not met

Check if z-score >= 0.1 (inclusive). Item: CCOC(=O)CCN1C(=O)[C@H]2[C@H]3[C@H](O)[C@H](O)CC(=NNC(=O)OCc4ccccc4)[C@H]3CC[C@H]2C1=O condition met

Reported z-score reaches at least 0.1 for O=C1[C@H]2[C@H]3[C@H](O)[C@H](O)CC(=NOC[C@@H](O)COCc4ccco4)[C@@H]3CC[C@H]2C(=O)N1C1CCCCC1 ? condition met

hey, is z-score for this one >= 0.1? C=CC[C@@H]1C=C[C@H](ON=C(C)CCN2CCCCc3nc(C)c(C)cc32)[C@@H](CO)O1 condition not met
